Listed here are binders together with their documented kon.
Biological target: T1, recombinant human TIGIT (human, UniProt Q495A1 22-141, limits assumed)
T1 construct: recombinant human TIGIT used in Carterra SPR; also called hTIGIT
T1 sequence (looked up): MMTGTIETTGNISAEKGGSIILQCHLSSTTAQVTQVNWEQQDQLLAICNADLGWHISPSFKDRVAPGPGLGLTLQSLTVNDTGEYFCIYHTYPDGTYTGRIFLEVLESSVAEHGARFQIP
Test: SPR Carterra, average
Property name: kon (M⁻¹ s⁻¹)

1) TIGIT-SC15 (Fc fusion, VHH-Fc fusion in assay) VHH: EVQLVESGGGLVQPGGSLRLSCAASGSILSFNHIGWFRQAPGKEREGVAWIARYDGSTLYADSVKGRFTISADNSKNTAYLQMNSLKPEDTAVYYCARARGGYVDYWGQGTLVTVSS = 143000
2) TIGIT-SC57 (Fc fusion, VHH-Fc fusion in assay) VHH: EVQLVESGGGLVQPGGSLRLSCAASGNTFSGGFMGWFRQAPGKEREWVASVLRGGYTWYADSVKGRFTISADNSKNTAYLQMNSLKPEDTAVYYCTTYRGWGQGTLVTVSS = 149000
3) TIGIT-SC147 (Fc fusion, VHH-Fc fusion in assay) VHH: EVQLVESGGGLVQPGGSLRLSCAASGTITSAVFMGWFRQAPGKEREFVAAVIWRGGSLKSYADSVKGRFTISADNSKNTAYLQMNSLKPEDTAVYYCAKLAVAGNYYYYGMDVWGQGTLVTVSS = 383000
4) TIGIT-SC16 (Fc fusion, VHH-Fc fusion in assay) VHH: EVQLVESGGGLVQPGGSLRLSCAASGTTFSSAAMGWFRQAPGKEREWVASVLRGGYTWYADSVKGRFTISADNSKNTAYLQMNSLKPEDTAVYYCARDPVELGDYWGQGTLVTVSS = 80100
